The measured values listed here are drawn from patent US20010007872A1.

Listing: IC50 of selected compounds
Target: α1-adrengergic receptor
Assay: Displacement of specific binding of [3H]prazosin from rat forebrain membranes
Settings: 0.2 nM [3H]prazosin, IC50 for displacement of specific binding
Field format: number, assumed µM, no unit text.

Example entries begin here.
compound	unit tag	IC50
OC(CN1CCC(Cc2ccc(F)cc2)CC1)c1ccc(Cl)cc1 (centres unmarked) [Eliprodil, reference compound]	µM	0.98
COc1cc([C@H](O)[C@H](C)N2CCC(O)(c3ccccc3)CC2)ccc1O	µM	8.1
C[C@@H]([C@@H](O)c1ccc(O)cc1)N1CCC(O)(c2ccccc2)CC1	µM	19.5

Now for another entry.
[in] Name the reported IC50 value associated with the compound Cc1cc([C@@H](OS(C)(=O)=O)[C@@H](C)N2CCC(O)(c3ccc(F)cc3)CC2)ccc1O (racemic)
[out] 10
